Kindly supply the reported IC50 values for the records listed here.
- Tested on: MCF-7
- Test protocol: Cell viability, breast cancer cells MCF-7
- Assay type: cell-based
- Assay setup: Homo sapiens, MCF7

**Q:** Item CC1=C(O)C(=O)C=C2C1=CC=C1[C@@]2(C)CC[C@@]2(C)[C@@H]3C[C@](C)(C(=O)O)CC[C@]3(C)CC[C@]12C [Celastrol] has what recorded IC50?
**A:** 3320 nM

**Q:** Item CC1=C(O)C(=O)C=C2C1=CC=C1[C@@]2(C)CC[C@@]2(C)[C@@H]3C[C@](C)(C(=O)NCCCOCCOCCOCCCNC(=O)CC4N=C(c5ccc(Cl)cc5)c5c(sc(C)c5C)-n5c(C)nnc54)CC[C@]3(C)CC[C@]12C (some centres unmarked) [CS-JQ1] has what recorded IC50?
**A:** 409 nM

* * *

- Assay system: UniProt O60885
- Test protocol: Rescue of CS-JQ1-induced BRD4 degradation by co-treatment
- Type: cell-based
- Assay setup: CS-JQ1 250 nM; BTZ, MLN7243, MLN4924 1 μM, JQ1 10 μM; MCF7 and MDA-MB-231 cells
Experimental endpoint: Rescue of CS-JQ1-mediated BRD4 degradation by co-treatment

NS(=O)(=O)OC[C@H]1C[C@@H](Nc2ccnc3cc(-c4cccc(SC(F)(F)F)c4)nn23)[C@H](O)[C@@H]1O :: substantially rescued
CC(C)C[C@H](NC(=O)[C@H](Cc1ccccc1)NC(=O)c1cnccn1)B(O)O :: substantially rescued
NS(=O)(=O)OC[C@@H]1C[C@@H](n2ccc3c(N[C@H]4CCc5ccccc54)ncnc32)C[C@@H]1O :: substantially rescued

* * *

Kindly supply the reported IC50 values for the records listed here.
- Test system: DIPG VI
- Test protocol: Cell viability, pediatric glioma DIPG VI
- Type: cell-based
# output: bare number, implied unit nM

**Q:** Item CC1=C(O)C(=O)C=C2C1=CC=C1[C@@]2(C)CC[C@@]2(C)[C@@H]3C[C@](C)(C(=O)O)CC[C@]3(C)CC[C@]12C [Celastrol] has what recorded IC50?
**A:** 1360

**Q:** Item CC1=C(O)C(=O)C=C2C1=CC=C1[C@@]2(C)CC[C@@]2(C)[C@@H]3C[C@](C)(C(=O)NCCCOCCOCCOCCCNC(=O)CC4N=C(c5ccc(Cl)cc5)c5c(sc(C)c5C)-n5c(C)nnc54)CC[C@]3(C)CC[C@]12C (some centres unmarked) [CS-JQ1] has what recorded IC50?
**A:** 83.1

**Q:** Item CC1(C)CC[C@]2(C(=O)O)CC[C@]3(C)[C@H](C(=O)C=C4[C@@]5(C)C=C(C#N)C(=O)C(C)(C)[C@@H]5CC[C@]43C)[C@@H]2C1 [CDDO] has what recorded IC50?
**A:** 1330

**Q:** Item Cc1sc2c(c1C)C(c1ccc(Cl)cc1)=NC(CC(=O)NCCCOCCOCCOCCCNC(=O)[C@]13CCC(C)(C)C[C@H]1[C@H]1C(=O)C=C4[C@@]5(C)C=C(C#N)C(=O)C(C)(C)[C@@H]5CC[C@@]4(C)[C@]1(C)CC3)c1nnc(C)n1-2 (some centres unmarked) [CDDO-JQ1] has what recorded IC50?
**A:** 277

* * *

- Test system: U87
- Test protocol: Cell viability, adult glioma U87
- Assay type: cell-based
- Assay setup: Homo sapiens, U-87 MG
Kindly supply the reported IC50 values for the records listed here.
# output: bare number, implied unit nM

**Q:** Which measured IC50 belongs to CC1=C(O)C(=O)C=C2C1=CC=C1[C@@]2(C)CC[C@@]2(C)[C@@H]3C[C@](C)(C(=O)O)CC[C@]3(C)CC[C@]12C , tested on U87?
**A:** 913

**Q:** Which measured IC50 belongs to CC1=C(O)C(=O)C=C2C1=CC=C1[C@@]2(C)CC[C@@]2(C)[C@@H]3C[C@](C)(C(=O)NCCCOCCOCCOCCCNC(=O)CC4N=C(c5ccc(Cl)cc5)c5c(sc(C)c5C)-n5c(C)nnc54)CC[C@]3(C)CC[C@]12C (stereo partly drawn) , tested on U87?
**A:** 266

**Q:** Which measured IC50 belongs to Cc1sc2c(c1C)C(c1ccc(Cl)cc1)=NC(CC(=O)OC(C)(C)C)c1nnc(C)n1-2 (stereo not drawn) , tested on U87?
**A:** 6950

Where these numbers come from: patent US20250034202A1
